target: CaM (Bos taurus, UniProt P62157); construct: made in house; host or cells: E. coli BL21 (DE3); assay: Pull-down assay with immobilized protein and LSM libraries; format: binding, bovine; conditions: H12 library; 1:2 stoichiometry assumed; read-out: Surface mapping KD (apparent)
recorded_endpoint: Kd (µM)

The cases that follow already have their Kd on record.
chemical_smiles: CSCC[C@@H](CC(=O)N[C@H]1CCC[C@@H]1C(=O)N[C@H]1CCC[C@@H]1C(N)=O)NC(=O)[C@H]1CCC[C@@H]1NC(=O)[C@H]1CCC[C@@H]1NC(=O)C[C@H](CO)NC(=O)[C@H]1CCC[C@@H]1NC(=O)[C@H]1CCC[C@@H]1N
tgt: CaM (Bos taurus, UniProt P62157)
Kd [µM]: 340

chemical_smiles: NC(=O)[C@H]1CCC[C@@H]1NC(=O)[C@H]1CCC[C@@H]1NC(=O)C[C@H](Cc1c[nH]c2ccccc12)NC(=O)[C@H]1CCC[C@@H]1NC(=O)[C@H]1CCC[C@@H]1NC(=O)C[C@H](Cc1c[nH]c2ccccc12)NC(=O)[C@H]1CCC[C@@H]1NC(=O)[C@H]1CCC[C@@H]1N
tgt: CaM (Bos taurus, UniProt P62157)
Kd [µM]: 413

chemical_smiles: N=C(N)NCCC[C@@H](CC(=O)N[C@H]1CCC[C@@H]1C(=O)N[C@H]1CCC[C@@H]1C(=O)N[C@H](CC(=O)N[C@H]1CCC[C@@H]1C(=O)N[C@H]1CCC[C@@H]1C(N)=O)Cc1ccc(O)cc1)NC(=O)[C@H]1CCC[C@@H]1NC(=O)[C@H]1CCC[C@@H]1N
tgt: CaM (Bos taurus, UniProt P62157)
Kd [µM]: 381

chemical_smiles: N=C(N)NCCC[C@@H](CC(=O)N[C@H]1CCC[C@@H]1C(=O)N[C@H]1CCC[C@@H]1C(N)=O)NC(=O)[C@H]1CCC[C@@H]1NC(=O)[C@H]1CCC[C@@H]1NC(=O)C[C@H](Cc1c[nH]c2ccccc12)NC(=O)[C@H]1CCC[C@@H]1NC(=O)[C@H]1CCC[C@@H]1N
tgt: CaM (Bos taurus, UniProt P62157)
Kd [µM]: 226

P: NC(=O)CC[C@@H](CC(=O)N[C@H]1CCC[C@@H]1C(=O)N[C@H]1CCC[C@@H]1C(=O)N[C@@H](CC(=O)O)CC(=O)N[C@H]1CCC[C@@H]1C(=O)N[C@H]1CCC[C@@H]1C(N)=O)NC(=O)[C@H]1CCC[C@@H]1NC(=O)[C@H]1CCC[C@@H]1N
Q: C[C@@H](O)[C@@H](CC(=O)N[C@H]1CCC[C@@H]1C(=O)N[C@H]1CCC[C@@H]1C(=O)N[C@@H](CCCNC(=N)N)CC(=O)N[C@H]1CCC[C@@H]1C(=O)N[C@H]1CCC[C@@H]1C(N)=O)NC(=O)[C@H]1CCC[C@@H]1NC(=O)[C@H]1CCC[C@@H]1N
R: NC(=O)C[C@@H](CC(=O)N[C@H]1CCC[C@@H]1C(=O)N[C@H]1CCC[C@@H]1C(=O)N[C@@H](CO)CC(=O)N[C@H]1CCC[C@@H]1C(=O)N[C@H]1CCC[C@@H]1C(N)=O)NC(=O)[C@H]1CCC[C@@H]1NC(=O)[C@H]1CCC[C@@H]1N
Query: Arrange items by their Kd values in increasing order. Reply: labels, ordered per the request.
Response: R, Q, P
